# protocol.description: in vivo
# condition.context: female, rhesus monkey, Tissue concentration, Iliac lymph nodes
# Description: RT-SHIV was selected for the study since it contains the HIVHXBc2 RT that is sensitive to RPV. RT-SHIV was obtained through the NIH AIDS Reagent Program, Division of AIDS, NIAID, NIH[17]–[19]. […] A cocktail of methanol containing internal standards was added to precipitate proteins. […] Drug concentrations were calculated from a standard curve with a range of 0.5–2000 ng/mL using Analyst software. […] Plasma concentrations of CAB were measured weekly. […]
Catalogue of concentration at 3 weeks readings, one per entry.
experimental.readout: concentration at 3 weeks (ng/g)

compound: C[C@H]1CO[C@@H]2Cn3cc(C(=O)NCc4ccc(F)cc4F)c(=O)c(O)c3C(=O)N12 [CAB, cabotegravir]
recorded.result: 1280
--
compound: Cc1cc(/C=C/C#N)cc(C)c1Nc1ccnc(Nc2ccc(C#N)cc2)n1 [RPV, rilpivirine]
recorded.result: 736

Values from paper PMC11618496
